compounds and their reported Population Pyknosed Nuclei (%)
System: HEK-293T
Assay: Multiplex assay against HEK293T
Type: toxicity, cell-based
Conditions: human, 24 h, 10 µM, compound concentration 10 uM, replicate 1
Number in %, nothing else.

Worked cases, answers included:
[[record]]
compound = "Cc1nc(-c2cn3c(n2)-c2ccc(-c4cnn(C(C)(C)C(N)=O)c4)cc2OCC3)n(C(C)C)n1"
endpoint_label = "Population Pyknosed Nuclei (%)"
numeric_value = 19

[[record]]
compound = "Cc1csc2c(N[C@@H](C)CN3CCN(S(=O)(=O)c4ccc(Cl)c(Cl)c4)CC3)ncnc12"
endpoint_label = "Population Pyknosed Nuclei (%)"
numeric_value = 80

[[record]]
compound = "COc1cc2nccc(Oc3ccc(NC(=O)Nc4cc(C)on4)c(Cl)c3)c2cc1OC.O"
endpoint_label = "Population Pyknosed Nuclei (%)"
numeric_value = 56

[[record]]
compound = "Cc1nc(-c2ccc(-c3ccc(C(=O)N4CCc5cc6c(cc54)C4(CCN(C)CC4)CO6)cc3)c(C)c2)no1"
endpoint_label = "Population Pyknosed Nuclei (%)"
numeric_value = 77

[[record]]
compound = "COc1cc(-n2cnc3cc(-c4ccc(Cl)cc4)sc3c2=O)ccc1OCCN1CCCC1"
endpoint_label = "Population Pyknosed Nuclei (%)"
numeric_value = 68


Query: Requested read-out: Population Pyknosed Nuclei (%). Entry: Cn1cc(-c2[nH]c3cc(NC(=O)[C@H](N)C4CCCCC4)cc4c3c2C=NNC4=O)cn1
Response: 69

Query: Requested read-out: Population Pyknosed Nuclei (%). Entry: Cc1cc(C)cc(-c2cnc3cc(Cl)c(-c4cccc(O)c4)cc3c2OCCCN)c1
Response: 76

Query: Requested read-out: Population Pyknosed Nuclei (%). Entry: C[C@@H](NCCCc1cccc(C(F)(F)F)c1)c1cccc2ccccc12.Cl [CINACALCET HYDROCHLORIDE]
Response: 68

Query: Requested read-out: Population Pyknosed Nuclei (%). Entry: Cc1[nH]c(/C=C2\C(=O)Nc3ccc(S(=O)(=O)N(C)c4cccc(Cl)c4)cc32)c(C)c1C(=O)N1CCN(C)CC1
Response: 56

Query: Requested read-out: Population Pyknosed Nuclei (%). Entry: CN1CCN(CCOc2cc(OC3CCOCC3)c3c(Nc4c(Cl)ccc5c4OCO5)ncnc3c2)CC1
Response: 71

Query: Requested read-out: Population Pyknosed Nuclei (%). Entry: Cl.N#Cc1ccc2[nH]cc(CCCCN3CCN(c4ccc5oc(C(N)=O)cc5c4)CC3)c2c1 [VILAZODONE HYDROCHLORIDE]
Response: 74

Query: Requested read-out: Population Pyknosed Nuclei (%). Entry: CC[C@H](C)C(=O)O[C@H]1C[C@@H](C)C=C2C=C[C@H](C)[C@H](CC[C@@H]3C[C@@H](O)CC(=O)O3)[C@H]21
Response: 50

Query: Requested read-out: Population Pyknosed Nuclei (%). Entry: Cc1c(-c2ccc(O)cc2)n(Cc2ccc(OCCN3CCCCCC3)cc2)c2ccc(O)cc12
Response: 76

Query: Requested read-out: Population Pyknosed Nuclei (%). Entry: CN(C)C(=O)N[C@H]1CC[C@H](CCN2CCN(c3cccc(Cl)c3Cl)CC2)CC1.Cl [CARIPRAZINE HYDROCHLORIDE]
Response: 59

Query: Requested read-out: Population Pyknosed Nuclei (%). Entry: CC(C)(O)CNc1ncc(-c2ccnc(Nc3ccnc(Cl)c3)n2)c(CC2CC2)n1
Response: 81

###

Tested on: Fibroblast
Experiment: Multiplex assay against human fibroblast
Format: toxicity, cell-based
Details: 48 h, 1 µM, compound concentration 1 uM, replicate 1
In plain terms, low Population Tubulin-Different-Phenotype (%), meaning strictly below 50%, gives class 1, and everything else gives class 0.

Please review the entries below; each comes with its answer.
[[record]]
molecule = "CNc1nc(NCc2ccc(NS(C)(=O)=O)cc2Cl)cc(-c2ccccn2)n1"
class_assignment = "class 1"

[[record]]
molecule = "OC1(c2ccc(Cl)cc2)CCN(Cc2c[nH]c3ccccc23)CC1"
class_assignment = "class 0"

[[record]]
molecule = "Cl.N#Cc1ccc2[nH]cc(CCCCN3CCN(c4ccc5oc(C(N)=O)cc5c4)CC3)c2c1 [VILAZODONE HYDROCHLORIDE]"
class_assignment = "class 1"

[[record]]
molecule = "CC(C)NCC(O)COc1ccc(CCOCC2CC2)cc1.Cl (stereo unspecified) [BETAXOLOL HYDROCHLORIDE]"
class_assignment = "class 1"

[[record]]
molecule = "O=C1NCN(c2ccccc2)C12CCN(CCCOc1ccc(F)cc1)CC2 [SPIRAMIDE]"
class_assignment = "class 1"


// switching to the query molecule
Query: Check if Population Tubulin-Different-Phenotype (%) falls below 50% for Cn1cc(-c2[nH]c3cc(NC(=O)[C@H](N)C4CCCCC4)cc4c3c2C=NNC4=O)cn1 .
Response: class 1

###

System: HEK-293T
Assay: Multiplex assay against HEK293T;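 for Population Tubulin-Different-Phenotype (%): share of the cells with healthy nuclei that show this phenotype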
Assay type: toxicity, cell-based
Conditions: human, 12 h, 1 µM, compound concentration 1 uM, replicate 2
molecules and their reported Population Tubulin-Different-Phenotype (%)
Number in %, nothing else.

[[record]]
molecule = "c1cn2cc(-c3ccc4cn[nH]c4c3)nc(Nc3ccc(N4CCOCC4)cc3)c2n1"
numeric_value = 57

[[record]]
molecule = "CN(C)CC#Cc1ccc(OCCCc2sc(N3CCc4cccc(C(=O)Nc5nc6ccccc6s5)c4C3)nc2C(=O)O)c(F)c1"
numeric_value = 17


Query: Lab note: need Population Tubulin-Different-Phenotype (%) for COc1cccc([C@@H](C)NCCCc2ccccc2Cl)c1.Cl [TECALCET HYDROCHLORIDE] on HEK-293T, anyone have it?
Response: 41

Query: Lab note: need Population Tubulin-Different-Phenotype (%) for Cc1cc(C)cc(-c2cnc3cc(Cl)c(-c4cccc(O)c4)cc3c2OCCCN)c1 on HEK-293T, anyone have it?
Response: 63

Query: Lab note: need Population Tubulin-Different-Phenotype (%) for COc1cc(-n2cnc3cc(-c4ccc(Cl)cc4)sc3c2=O)ccc1OCCN1CCCC1 on HEK-293T, anyone have it?
Response: 60

Query: Lab note: need Population Tubulin-Different-Phenotype (%) for Cc1c(-c2ccc(O)cc2)n(Cc2ccc(OCCN3CCCCCC3)cc2)c2ccc(O)cc12 on HEK-293T, anyone have it?
Response: 38

Query: Lab note: need Population Tubulin-Different-Phenotype (%) for C[C@@H](NCCCc1cccc(C(F)(F)F)c1)c1cccc2ccccc12.Cl [CINACALCET HYDROCHLORIDE] on HEK-293T, anyone have it?
Response: 67

Query: Lab note: need Population Tubulin-Different-Phenotype (%) for C=CC(=O)Nc1ccc2ncnc(Nc3ccc(OCc4cccc(F)c4)c(Cl)c3)c2c1.Cc1ccc(S(=O)(=O)O)cc1 on HEK-293T, anyone have it?
Response: 24

Query: Lab note: need Population Tubulin-Different-Phenotype (%) for CC[C@H](C)C(=O)O[C@H]1C[C@@H](C)C=C2C=C[C@H](C)[C@H](CC[C@@H]3C[C@@H](O)CC(=O)O3)[C@H]21 on HEK-293T, anyone have it?
Response: 9

###

Test system: HEK-293T
Assay: Multiplex assay against HEK293T
Type: toxicity, cell-based
Conditions: human, 12 h, 10 µM, compound concentration 10 uM, replicate 2
endpoint-label: Population Mitochondria Different-Phenotype (%)
Number in %, nothing else.

[[record]]
molecule = "Cc1nc(-c2ccc(-c3ccc(C(=O)N4CCc5cc6c(cc54)C4(CCN(C)CC4)CO6)cc3)c(C)c2)no1"
reading_unit = "%"
numeric_value = 95


Turning to the following molecule.
Query: Requested read-out: Population Mitochondria Different-Phenotype (%). Entry: CNc1nc(NCc2ccc(NS(C)(=O)=O)cc2Cl)cc(-c2ccccn2)n1
Response: 50

###

compounds and their reported Population Healthy Nuclei (%)
System: HEK-293T
Assay: Multiplex assay against HEK293T
Assay type: toxicity, cell-based
Details: human, 48 h, 10 µM, compound concentration 10 uM, replicate 1
Number in %, nothing else.

Worked cases, answers included:
[[record]]
smiles_representation = "CN1CCN(CCOc2cc(OC3CCOCC3)c3c(Nc4c(Cl)ccc5c4OCO5)ncnc3c2)CC1"
endpoint_label = "Population Healthy Nuclei (%)"
numeric_value = 30

[[record]]
smiles_representation = "NC(=O)Nc1cc(-c2cccc(F)c2)sc1C(=O)N[C@H]1CCCNC1"
endpoint_label = "Population Healthy Nuclei (%)"
numeric_value = 3

[[record]]
smiles_representation = "CC(C)(O)CNc1ncc(-c2ccnc(Nc3ccnc(Cl)c3)n2)c(CC2CC2)n1"
endpoint_label = "Population Healthy Nuclei (%)"
numeric_value = 1


Turning to the following compound.
Query: Requested read-out: Population Healthy Nuclei (%). Entry: CN(C)CC#Cc1ccc(OCCCc2sc(N3CCc4cccc(C(=O)Nc5nc6ccccc6s5)c4C3)nc2C(=O)O)c(F)c1
Response: 56

###

Tested on: U2OS
Test: Multiplex assay against U2OS
Type: toxicity, cell-based
Conditions: human, 12 h, 10 µM, compound concentration 10 uM, replicate 2
endpoint-label: Population Mitotic Cells (%)
Number in %, nothing else.

Worked cases, answers included:
[[record]]
compound = "Cl.N#Cc1ccc2[nH]cc(CCCCN3CCN(c4ccc5oc(C(N)=O)cc5c4)CC3)c2c1 [VILAZODONE HYDROCHLORIDE]"
reading_unit = "%"
numeric_value = 32

[[record]]
compound = "CN(C)C(=O)N[C@H]1CC[C@H](CCN2CCN(c3cccc(Cl)c3Cl)CC2)CC1.Cl [CARIPRAZINE HYDROCHLORIDE]"
reading_unit = "%"
numeric_value = 63

[[record]]
compound = "Cc1nc(-c2cn3c(n2)-c2ccc(-c4cnn(C(C)(C)C(N)=O)c4)cc2OCC3)n(C(C)C)n1"
reading_unit = "%"
numeric_value = 44


Query: Lab note: need Population Mitotic Cells (%) for Cc1nc(-c2ccc(-c3ccc(C(=O)N4CCc5cc6c(cc54)C4(CCN(C)CC4)CO6)cc3)c(C)c2)no1 on U2OS, anyone have it?
Response: 36
